molecular target: delF508-CFTR (Homo sapiens, UniProt P13569, DEL508-508); construct: endogenous in cells; host or cells: CFBE41o- human CF bronchial epithelial cells (delF508 homozygous); experiment: SPQ halide-sensitive fluorescence dye assay for rescue of halide efflux (8-point concentration-response); type: cell-based; conditions: CFBE41o- cells, 48 h; read-out: SPQ EC50
Sequence (P13569 with tags, fused parts or gaps DEL508-508): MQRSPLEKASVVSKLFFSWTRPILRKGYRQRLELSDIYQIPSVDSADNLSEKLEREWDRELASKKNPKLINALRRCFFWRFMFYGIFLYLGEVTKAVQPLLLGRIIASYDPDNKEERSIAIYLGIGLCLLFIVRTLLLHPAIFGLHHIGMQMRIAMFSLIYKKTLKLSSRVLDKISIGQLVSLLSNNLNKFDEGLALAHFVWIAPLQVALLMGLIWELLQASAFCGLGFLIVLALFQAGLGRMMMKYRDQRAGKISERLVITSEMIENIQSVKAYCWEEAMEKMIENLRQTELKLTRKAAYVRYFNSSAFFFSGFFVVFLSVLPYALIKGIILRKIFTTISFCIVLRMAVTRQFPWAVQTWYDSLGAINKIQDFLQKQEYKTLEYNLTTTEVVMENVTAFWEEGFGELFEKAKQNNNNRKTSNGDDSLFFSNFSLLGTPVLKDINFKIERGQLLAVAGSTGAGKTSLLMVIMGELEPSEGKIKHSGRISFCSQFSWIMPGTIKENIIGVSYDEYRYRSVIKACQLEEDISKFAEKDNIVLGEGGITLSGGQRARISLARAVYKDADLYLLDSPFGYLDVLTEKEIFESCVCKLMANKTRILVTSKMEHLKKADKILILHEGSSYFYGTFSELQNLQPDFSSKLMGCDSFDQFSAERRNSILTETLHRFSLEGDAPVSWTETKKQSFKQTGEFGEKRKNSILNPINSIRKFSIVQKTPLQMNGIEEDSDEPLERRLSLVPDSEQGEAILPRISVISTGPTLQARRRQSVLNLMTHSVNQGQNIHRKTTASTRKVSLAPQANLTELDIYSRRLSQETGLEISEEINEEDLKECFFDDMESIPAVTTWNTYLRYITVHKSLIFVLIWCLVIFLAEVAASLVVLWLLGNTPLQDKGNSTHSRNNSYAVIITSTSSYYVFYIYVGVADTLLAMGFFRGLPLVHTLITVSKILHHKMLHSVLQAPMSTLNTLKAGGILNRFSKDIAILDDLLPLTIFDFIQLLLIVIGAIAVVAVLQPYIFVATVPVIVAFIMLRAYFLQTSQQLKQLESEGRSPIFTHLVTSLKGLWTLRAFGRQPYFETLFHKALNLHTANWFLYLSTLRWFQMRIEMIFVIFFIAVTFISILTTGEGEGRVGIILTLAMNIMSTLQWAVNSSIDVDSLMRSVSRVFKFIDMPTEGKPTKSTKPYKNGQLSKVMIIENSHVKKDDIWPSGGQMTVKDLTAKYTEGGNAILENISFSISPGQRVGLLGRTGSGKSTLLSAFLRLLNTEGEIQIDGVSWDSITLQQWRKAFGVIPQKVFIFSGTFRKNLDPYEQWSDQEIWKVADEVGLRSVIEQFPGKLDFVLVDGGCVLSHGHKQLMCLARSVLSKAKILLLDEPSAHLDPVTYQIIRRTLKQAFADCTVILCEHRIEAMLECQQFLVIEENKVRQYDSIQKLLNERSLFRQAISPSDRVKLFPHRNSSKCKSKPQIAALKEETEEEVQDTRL
pEC50: −log10 of the molar value.
Measured Endpoint: pEC50

A selection of reference data follows.
{"columns": ["Compound", "Measured Endpoint", "Recorded Measurement"],
 "data": [
  ["CCCCn1c(C)cn2c3c(=O)n(CC(=O)OC)c(=O)n(C)c3nc12", "pEC50", 4.97],
  ["C=CCn1c(=O)c2c(nc3n(-c4cccc(C)c4)c(C)c(C)n23)n(C)c1=O", "pEC50", 5.21],
  ["Cc1cccc(N2CC(C)Cn3c2nc2c3c(=O)[nH]c(=O)n2C)c1 (stereo not drawn)", "pEC50", 4.92],
  ["Cc1c(C)n2c3c(=O)n(CC(C)C)c(=O)n(C)c3nc2n1Cc1ccco1", "pEC50", 5.00]
]}

1. CCn1c(=O)c2c(nc3n(-c4ccc(C)cc4)c(C)cn23)n(C)c1=O
2. C/C=C/CN1N=C(C)Cn2c1nc1c2c(=O)n(CCC)c(=O)n1C
IN: Lab log: flag the item ( 1 or 2 ) with the smaller pEC50 figure. Choose, then provide that item's label.
OUT: 2

1. COc1ccc(N2CCN(c3nc4c([nH]3)c(=O)n(C)c(=O)n4C)CC2)cc1
2. CCOCCn1c(=O)c2c(nc3n2CCN3c2cc(C)ccc2C)n(C)c1=O
IN: Lab log: flag the item ( 1 or 2 ) with the smaller pEC50 figure. Choose, then provide that item's label.
OUT: 2
(2: 5.02, 1: 5.46)

A. CCCn1c(C)cn2c3c(=O)n(Cc4cccc(C)c4)c(=O)n(C)c3nc12
B. Cn1c(=O)n(Cc2ccccc2)c(=O)c2c1nc1oc(C(C)(C)C)cn12
IN: Between the two listed entries A and B , which has its pEC50 at the higher number? Choose, then provide that item's label.
OUT: A
(A: 5.43, B: 4.98)

A. C=CCN1N=C(C)Cn2c1nc1c2c(=O)n(CCC)c(=O)n1C
B. Cc1cn2c3c(=O)n(C)c(=O)n(C)c3nc2n1-c1ccc(O)cc1
IN: Lab log: flag the item ( A or B ) with the smaller pEC50 figure. Choose, then provide that item's label.
OUT: B

I. COc1ccccc1CN1CCN(c2nc3c(=O)n(C)c(=O)n(C)c3[nH]2)CC1
II. C=CCn1c(=O)c2c(nc3n(C(C)CC)c(C)c(C)n23)n(C)c1=O (stereo not drawn)
III. CCOC(=O)C1CCCN(c2nc3c(c(=O)n(C)c(=O)n3C)n2CC)C1 (stereo not drawn)
IN: Please list these compounds in decreasing order of pEC50. Please reply with the labels ordered as requested. Many thanks.
OUT: I, II, III
